Tested Target: human α1B‐adrenoceptor (Homo sapiens)
Construct: expressed in transfected cells; host or cells: CHO-K1
Sequence (P35368 whole entry): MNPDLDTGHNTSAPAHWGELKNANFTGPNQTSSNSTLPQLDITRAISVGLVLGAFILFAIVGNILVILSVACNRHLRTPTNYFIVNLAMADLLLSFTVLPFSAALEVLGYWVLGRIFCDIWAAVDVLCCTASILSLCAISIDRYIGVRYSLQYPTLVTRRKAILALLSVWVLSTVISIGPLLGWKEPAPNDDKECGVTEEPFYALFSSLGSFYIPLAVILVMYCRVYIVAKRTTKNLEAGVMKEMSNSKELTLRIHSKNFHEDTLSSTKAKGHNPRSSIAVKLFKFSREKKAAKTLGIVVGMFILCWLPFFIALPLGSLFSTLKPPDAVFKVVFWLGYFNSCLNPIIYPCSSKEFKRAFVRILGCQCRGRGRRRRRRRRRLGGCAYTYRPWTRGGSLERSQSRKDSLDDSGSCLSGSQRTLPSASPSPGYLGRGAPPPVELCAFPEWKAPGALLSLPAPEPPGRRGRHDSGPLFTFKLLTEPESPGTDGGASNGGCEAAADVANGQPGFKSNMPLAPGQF
Measurement Description: ^3H‐prazosin whole‐cell radioligand binding, CHO‐α1B cells
Run Parameters: Log KD α1B, ^3H‐prazosin whole cell binding
Readings of Kd for the listed compounds
Use µM as the unit, but write only the number.

# example entries with known answers
Compound: Cc1cccc([C@H](C)c2cnc[nH]2)c1C [Dexmedetomidine]
Kd [µM]: 9.12
--
Compound: Cc1cccc(C(C)c2cnc[nH]2)c1C (stereo not drawn) [Medetomidine]
Kd [µM]: 14.5

Now for a further compound.
Asked: Could you tell me which Kd is on file for CC(Cc1ccc(O)cc1)NCC(O)c1cc(O)cc(O)c1 (stereo not drawn) [Fenoterol] ?
Given back: 123
